Data origin, for the record: patent US8951999B2

# Target or test system: recombinant human mPGES-1 (Homo sapiens)
# Sequence (O14684 whole entry): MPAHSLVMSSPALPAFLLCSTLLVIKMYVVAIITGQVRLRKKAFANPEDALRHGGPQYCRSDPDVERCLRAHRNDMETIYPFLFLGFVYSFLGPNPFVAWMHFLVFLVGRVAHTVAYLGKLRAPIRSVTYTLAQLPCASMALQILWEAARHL
# Test name: Assay A: mPGES-1 enzyme assay (HTRF detection of PGE2)
# Type: biochemical
# Measurement context: biological assay A (compounds 1-41, 54, 55, 62, 73); PGE2 formation from PGH2, HTRF; read-out: mPGES-1 inhibitory effect IC50
Entries and their log10 IC50
Measure: log10 IC50 (log10 of the value in nM)

{"Structure smiles string": "CC(C)(C)C(=O)NCc1ccc(Cl)c(C(=O)Nc2ccc(F)c(C(=O)Nc3ccc(Br)cc3)c2F)c1", "Measure": "log10 IC50", "Endpoint value": 1.26}
{"Structure smiles string": "CC(C)(C)C(=O)NCc1ccc(Cl)c(C(=O)Nc2ccc(OCC(F)F)c(C(=O)Nc3ccc(Br)cc3)c2)c1", "Measure": "log10 IC50", "Endpoint value": 0.30}
{"Structure smiles string": "CC(C)(C)C(=O)NCc1ccc(Cl)c(C(=O)Nc2ccc(OCC(F)F)c(C(=O)N[C@H]3CC[C@H](C(F)(F)F)CC3)c2)c1", "Measure": "log10 IC50", "Endpoint value": 0.30}
{"Structure smiles string": "COc1ccc(NC(=O)c2cc(CNC(=O)c3c(F)cccc3C(F)(F)F)ccc2Cl)cc1C(=O)Nc1ccc(Br)cc1", "Measure": "log10 IC50", "Endpoint value": 0.48}
{"Structure smiles string": "COc1ccc(NC(=O)c2cc(CNC(=O)c3c(F)ccc(F)c3Cl)ccc2Cl)cc1C(=O)Nc1ccc(Br)cc1", "Measure": "log10 IC50", "Endpoint value": 0.00}
{"Structure smiles string": "CC1CCN(c2ccc(NC(=O)c3cc(CNC(=O)C(C)(C)C)ccc3Cl)cc2C(=O)Nc2ccc(Br)cc2)CC1", "Measure": "log10 IC50", "Endpoint value": 0.00}
{"Structure smiles string": "COc1ccc(NC(=O)c2cc(CNC(=O)C3(O)CC3)ccc2Cl)cc1C(=O)Nc1ccc(Br)cc1", "Measure": "log10 IC50", "Endpoint value": 0.60}
{"Structure smiles string": "COc1ccc(NC(=O)c2cc(CNC(=O)C(C)(C)C)ccc2Cl)cc1C(=O)N[C@H]1CC[C@@H](C(F)(F)F)CC1", "Measure": "log10 IC50", "Endpoint value": 0.60}
{"Structure smiles string": "COc1ccc(NC(=O)c2cc(CNC(=O)C3(C)CCCCC3)ccc2Cl)cc1C(=O)Nc1ccc(Br)cc1", "Measure": "log10 IC50", "Endpoint value": 0.30}
{"Structure smiles string": "COc1ccc(NC(=O)c2cc(CNC(=O)C(C)(C)C)ccc2Cl)cc1C(=O)NC1CCCCC1", "Measure": "log10 IC50", "Endpoint value": 1.20}
{"Structure smiles string": "COc1ccc(NC(=O)c2cc(CNC(=O)C(C)(F)F)ccc2Cl)cc1C(=O)Nc1ccc(Br)cc1", "Measure": "log10 IC50", "Endpoint value": 0.00}
{"Structure smiles string": "COc1ccc(NC(=O)c2cc(CNC(=O)c3c(F)cccc3Cl)ccc2Cl)cc1C(=O)Nc1ccc(Br)cc1", "Measure": "log10 IC50", "Endpoint value": 0.00}
{"Structure smiles string": "CC(C)(C)C(=O)NCc1ccc(Cl)c(C(=O)Nc2cc(F)c(F)c(C(=O)Nc3ccc(Br)cc3)c2)c1", "Measure": "log10 IC50", "Endpoint value": 0.95}
{"Structure smiles string": "CC(C)(C)C(=O)NCc1ccc(Cl)c(C(=O)Nc2ccc(OCC3CC3)c(C(=O)N[C@H]3CC[C@H](C(F)(F)F)CC3)c2)c1", "Measure": "log10 IC50", "Endpoint value": 0.60}
